We begin with a simple list: items and their reported Emax (10 µM), % of native GLP-2.
- system: T1, human GLP-2 receptor (human, UniProt O95838 1-553)
- T1 sequence (looked up): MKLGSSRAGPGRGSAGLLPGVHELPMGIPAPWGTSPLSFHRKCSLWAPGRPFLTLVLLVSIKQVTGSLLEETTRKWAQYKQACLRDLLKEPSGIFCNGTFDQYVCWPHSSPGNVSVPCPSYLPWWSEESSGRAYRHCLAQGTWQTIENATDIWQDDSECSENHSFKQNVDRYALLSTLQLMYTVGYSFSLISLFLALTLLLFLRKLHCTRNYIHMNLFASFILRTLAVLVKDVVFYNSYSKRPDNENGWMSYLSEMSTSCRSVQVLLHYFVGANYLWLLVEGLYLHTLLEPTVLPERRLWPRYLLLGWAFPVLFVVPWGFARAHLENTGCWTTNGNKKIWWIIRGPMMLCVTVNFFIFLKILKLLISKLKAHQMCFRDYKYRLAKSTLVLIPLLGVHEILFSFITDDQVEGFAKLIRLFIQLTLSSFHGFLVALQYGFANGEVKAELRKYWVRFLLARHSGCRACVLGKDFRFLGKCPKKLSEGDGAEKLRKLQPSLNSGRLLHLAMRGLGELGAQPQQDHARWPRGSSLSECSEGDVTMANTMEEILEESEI
- assay_protocol: cell-based or functional assay
Ends that are not written are not given here. * marks the point of attachment. Palmitoyl = CCCCCCCCCCCCCCCC(=O)*; Lauroyl = CCCCCCCCCCCC(=O)*
readout_kind: Emax (10 µM), % of native GLP-2 (%)

binder | unit_tag | measured
HADGTFISDYSTILDNLAARDFINWLIQTKITK (not fully specified (residue 1, N-terminus); also: C16 acyl group on His 1 (attachment site not given here)) [GIP-GLP-2 co-agonist 29] | % | 82
HADGTFISDYSTILDNLAARDFINWLIQTKGK(Palmitoyl)K [GIP-GLP-2 co-agonist 36] | % | 71
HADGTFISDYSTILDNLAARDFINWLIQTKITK (C16 acyl group on Lys 33 (K(c16/33), 'with C16 pos 33')) [GIP-GLP-2 co-agonist 33] | % | 82
HADGTFISDYSTIKDNLAARDFINWLIQTKITK [GIP-GLP-2 co-agonist 25] | % | 92
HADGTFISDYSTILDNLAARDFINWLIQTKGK(Lauroyl)K [GIP-GLP-2 co-agonist 35] | % | 68
HADGTFISDYSTILDNLKARDFINWLIQTKITK [GIP-GLP-2 co-agonist 27] | % | 100
